# System: MDA-MB-436 cells
# assay-summary: MDA-MB-436 cell proliferation inhibition test (CellTiter-Glo, 7 days)
# Type: cell-based
# protocol-conditions: Homo sapiens, MDA-MB-436, 168 h, 7 days incubation

| compound | tested-target | uom | IC50 |
| --- | --- | --- | --- |
| CNC(=O)c1ccc(N2CCN(Cc3cc4c5c(cnn5c3)N(C3CCC3)C(=O)N4)CC2)c(C)n1 [Compound 59] | MDA-MB-436 cells | nM | 6.5 |
| CNC(=O)c1ccc(N2CCN(Cc3cc4c5c(c3)ncn5[C@H](C3CC3)C(=O)N4)CC2)c(Cl)n1 [Compound 47-2] | MDA-MB-436 cells | nM | 16.7 |
| CNC(=O)c1ccc(N2CCN(Cc3cc4c5c(cnn5[C@@H](C5CC5)C(=O)N4)c3)CC2)c(Cl)n1 [Compound 43-1] | MDA-MB-436 cells | nM | 8.7 |
